molecular target: p38α, inactive (unphosphorylated), His-purified (UniProt Q16539 1-360); experiment: BLI; N-terminally biotinylated NOS3 peptides on streptavidin sensors, inactive MAP kinases as analytes at 31-1000 nM; 25 °C; PBS with 10% glycerol, 0.005% tween, 1 mM DTT; global one-state association-then-dissociation fit; details: both partners purified
Where no end group is shown, it is not given here. The star is where a group is joined. Biotin = O=C1N[C@H]2[C@H](CS[C@H]2CCCCC(=O)*)N1
Endpoint Label: pKd
The scale used: pKd is minus the common logarithm of the concentration in molar units.

In: Return reported pKd; argument: Biotin-YKIRFNSISCSDPLVSSWRRKRKESSNTDSA (source: synthetic peptide, bought: Biomatik) [AI peptide (NOS3 autoinhibitory loop site)]
Out: 7.21

In: Another binder: Biotin-CTPRRCLGSLVFPRKLQGRPSPGPPA (cysteine pairing not given here, Human NOS3, N-terminal MAP kinase (NtMAP) site with the S114 site; source: synthetic peptide, bought: Biomatik) [NtMAP peptide (NOS3 N-terminal MAP kinase site)]
Out: 7.51
